test system: CD4 T cells in PBMC from healthy donors; assay: PBMC from healthy donors stimulated with MELOE-1, restimulated with overlapping peptides, CD4/TNF-α staining; format: cell-based, human; details: seven healthy donors; TNFα production
measure.name: healthy donors in whom CD4 responses against the region were detected

Solved entries:
biosequence	value.measured
PWHPSERISSTLNDECWPASL [MELOE-126-46]	4 out of 7
PSEGAACPPWHPSERISSTL [MELOE-118-37]	2/7

Okay, next one:
Lab book: healthy donors in whom CD4 responses against the region were detected of SCVGYPDEATSREQFLPSEG (SCVGYPDEATSREQFLPSEC) [MELOE-12-21] noted as 6/7
